Tested on: NCI-H226
Test: cells
Conditions: Homo sapiens, NCI-H226, 48 h, read-out: LC50
Recorded CC50, one value per entry.
Report as a plain number; the unit µM is understood.

Prompt: For the record CN(C)c1nc(NCCNS(=O)(=O)c2ccc(C(=O)/C=C/c3ccccc3)cc2)nc(N2CCOCC2)n1 [23a] , what value of CC50 is listed for NCI-H226?
Completion: 74.2

---

Recorded CC50, one value per entry.
Tested on: SF-268
Experiment: cells
Conditions: Homo sapiens, SF-268, 48 h, read-out: LC50
Report as a plain number; the unit µM is understood.

Here is how some compounds turned out for CC50.
compound: CN(C)c1nc(NCCNS(=O)(=O)c2ccc(C(=O)/C=C/c3ccc(C(F)(F)F)cc3)cc2)nc(Nc2ccc(F)cc2)n1 [24g]
measured.attribute: CC50
measurement.unit: µM
test.value: 22.5
//
compound: COc1cc(/C=C/C(=O)c2cc(OC)c(OC)c(OC)c2)ccc1Oc1nc(NCCO)nc(N2CCOCC2)n1 [20d]
measured.attribute: CC50
measurement.unit: µM
test.value: 71.8
//
compound: CN(C)c1nc(NCCNS(=O)(=O)c2ccc(C(=O)/C=C/c3ccc(F)cc3)cc2)nc(Nc2ccc(F)cc2)n1 [24f]
measured.attribute: CC50
measurement.unit: µM
test.value: 16.4
//
compound: Cc1ccc(C2CC(c3ccc(Nc4nc(NCCO)nc(Nc5ccc(Cl)cc5)n4)cc3)=Nc3c(N)nc(N)nc3N2)cc1 (stereo not drawn) [33b]
measured.attribute: CC50
measurement.unit: µM
test.value: 7.35
//
compound: Cc1ccc(/C=C/C(=O)c2ccc(S(=O)(=O)NCCNc3nc(Nc4ccc(F)cc4)nc(N(C)C)n3)cc2)cc1 [24b]
measured.attribute: CC50
measurement.unit: µM
test.value: 90.9

Prompt: # query: CC50 of entry CN(C)c1nc(NCCNS(=O)(=O)c2ccc(C(=O)/C=C/c3ccc(Cl)cc3)cc2)nc(Nc2ccc(F)cc2)n1 [24e]
Completion: 23.5

Prompt: # query: CC50 of entry Nc1nc(N)c2c(n1)NC(c1ccc(C(F)(F)F)cc1)CC(c1ccc(Nc3nc(NCCO)nc(Nc4ccc(Cl)cc4)n3)cc1)=N2 (stereo not drawn) [33g]
Completion: 7.27

---

System: HOP-92
Test: cells
Conditions: Homo sapiens, HOP-92, 48 h, read-out: LC50
Cut-off 40 µM on CC50: below means True, at or above means False.

Prompt: Identify whether the compound CN(C)c1nc(NCCNS(=O)(=O)c2ccc(C(=O)/C=C/c3ccccc3)cc2)nc(Nc2ccc(F)cc2)n1 [24a] records CC50 below 40 µM.
Completion: False

---

Test system: SF-539
Assay: cells
Settings: Homo sapiens, SF-539, 48 h
Cut-off 4 µM on GI50: below means condition met, at or above means condition not met.

Study these solved cases before continuing.
molecule: COc1cc(/C=C/C(=O)c2ccc(C)cc2)ccc1Oc1nc(Nc2ccc(F)cc2)nc(N(C)C)n1 [21b]
group.label: condition not met
--
molecule: Nc1nc(N)c2c(n1)NC(c1ccc(Cl)cc1)CC(c1ccc(Nc3nc(NCCO)nc(Nc4ccc(Cl)cc4)n3)cc1)=N2 (centres unmarked) [33e]
group.label: condition met
--
molecule: COc1cc(/C=C/C(=O)c2ccc(C)cc2)ccc1Oc1nc(NCCO)nc(N2CCOCC2)n1 [20b]
group.label: condition met
--
molecule: CN(C)c1nc(NCCNS(=O)(=O)c2ccc(C(=O)/C=C/c3ccc(C(F)(F)F)cc3)cc2)nc(Nc2ccc(F)cc2)n1 [24g]
group.label: condition not met
--
molecule: CN(C)c1nc(NCCNS(=O)(=O)c2ccc(C3=Nc4c(N)nc(N)nc4NC(c4ccc(C(F)(F)F)cc4)C3)cc2)nc(Nc2ccc(F)cc2)n1 (centres unmarked) [31g]
group.label: condition not met
--
molecule: COc1cc(/C=C/C(=O)c2ccc(S(=O)(=O)NCCNc3nc(N(C)C)nc(N4CCOCC4)n3)cc2)cc(OC)c1OC [23d]
group.label: condition met
--
molecule: Nc1nc(N)c2c(n1)NC(c1ccccc1)CC(c1ccc(Nc3nc(NCCO)nc(Nc4ccc(Cl)cc4)n3)cc1)=N2 (centres unmarked) [33a]
group.label: condition met
--
molecule: COc1ccc(/C=C/C(=O)c2ccc(S(=O)(=O)NCCNc3nc(Nc4ccc(F)cc4)nc(N(C)C)n3)cc2)cc1 [24c]
group.label: condition not met

Okay, next one:
Prompt: Identify whether the molecule COc1cc(C2CC(c3ccc(Cl)cc3)=Nc3c(N)nc(N)nc3N2)ccc1Oc1nc(Nc2ccc(F)cc2)nc(N(C)C)n1 (centres unmarked) [29e] records GI50 below 4 µM.
Completion: condition not met

---

Record: GI50 reported on BT-549.
Report as a plain number; the unit nM is understood.

Here is how some molecules turned out for GI50.
molecule: COc1cc(/C=C/C(=O)c2cc(OC)c(OC)c(OC)c2)ccc1Oc1nc(NCCO)nc(N2CCOCC2)n1 [20d]
GI50, nM: 1600
--
molecule: Nc1nc(N)c2c(n1)NC(c1ccc(C(F)(F)F)cc1)CC(c1ccc(Nc3nc(NCCO)nc(Nc4ccc(Cl)cc4)n3)cc1)=N2 (stereo not shown) [33g]
GI50, nM: 1570
--
molecule: CN(C)c1nc(NCCNS(=O)(=O)c2ccc(C(=O)/C=C/c3ccccc3)cc2)nc(Nc2ccc(F)cc2)n1 [24a]
GI50, nM: 13900
--
molecule: CN(C)c1nc(NCCNS(=O)(=O)c2ccc(C(=O)/C=C/c3ccc(Cl)cc3)cc2)nc(Nc2ccc(F)cc2)n1 [24e]
GI50, nM: 11600
--
molecule: COc1cc(/C=C/C(=O)c2cc(OC)c(OC)c(OC)c2)ccc1Oc1nc(Nc2ccc(F)cc2)nc(N(C)C)n1 [21d]
GI50, nM: 1560
--
molecule: Nc1nc(N)c2c(n1)NC(c1ccc(F)cc1)CC(c1ccc(Nc3nc(NCCO)nc(Nc4ccc(Cl)cc4)n3)cc1)=N2 (stereo not shown) [33f]
GI50, nM: 1560

// below: GI50 requested for another molecule
Prompt: # query: GI50 of entry COc1cc(/C=C/C(=O)c2ccc(S(=O)(=O)NCCNc3nc(Nc4ccc(F)cc4)nc(N(C)C)n3)cc2)cc(OC)c1OC [24d]
Completion: 2250

---

System: UO-31
Test: cells
Settings: Homo sapiens, UO-31, 48 h, read-out: LC50
measured.attribute: CC50 (µM)
Report as a plain number; the unit µM is understood.

Here is how some compounds turned out for CC50.
compound: COc1cc(/C=C/C(=O)c2ccc(S(=O)(=O)NCCNc3nc(Nc4ccc(F)cc4)nc(N(C)C)n3)cc2)cc(OC)c1OC [24d]
CC50 / µM: 41.4

compound: COc1cc(/C=C/C(=O)c2cc(OC)c(OC)c(OC)c2)ccc1Oc1nc(NCCO)nc(N2CCOCC2)n1 [20d]
CC50 / µM: 6.5

Prompt: # query: CC50 of entry CN(C)c1nc(NCCNS(=O)(=O)c2ccc(C(=O)/C=C/c3ccc(Cl)cc3)cc2)nc(Nc2ccc(F)cc2)n1 [24e]
Completion: 16.6

Prompt: # query: CC50 of entry CN(C)c1nc(NCCNS(=O)(=O)c2ccc(C(=O)/C=C/c3ccc(F)cc3)cc2)nc(Nc2ccc(F)cc2)n1 [24f]
Completion: 11.9

Prompt: # query: CC50 of entry CN(C)c1nc(NCCNS(=O)(=O)c2ccc(C(=O)/C=C/c3ccc(F)cc3)cc2)nc(N2CCOCC2)n1 [23f]
Completion: 47.9

---

Recorded CC50, one value per entry.
Test system: NCI-H322M
Assay: cells
Conditions: Homo sapiens, 48 h, read-out: LC50
Report as a plain number; the unit µM is understood.

Here is how some compounds turned out for CC50.
compound: Nc1nc(N)c2c(n1)NC(c1ccccc1)CC(c1ccc(Nc3nc(NCCO)nc(Nc4ccc(Cl)cc4)n3)cc1)=N2 (centres unmarked) [33a]
measurement.unit: µM
CC50: 5.67
--
compound: CN(C)c1nc(NCCNS(=O)(=O)c2ccc(C(=O)/C=C/c3ccccc3)cc2)nc(N2CCOCC2)n1 [23a]
measurement.unit: µM
CC50: 56.5
--
compound: CN(C)c1nc(NCCNS(=O)(=O)c2ccc(C(=O)/C=C/c3ccc(C(F)(F)F)cc3)cc2)nc(Nc2ccc(F)cc2)n1 [24g]
measurement.unit: µM
CC50: 24.3
--
compound: CN(C)c1nc(NCCNS(=O)(=O)c2ccc(C(=O)/C=C/c3ccc(Cl)cc3)cc2)nc(Nc2ccc(F)cc2)n1 [24e]
measurement.unit: µM
CC50: 24.9
--
compound: CN(C)c1nc(NCCNS(=O)(=O)c2ccc(C3=Nc4c(N)nc(N)nc4NC(c4ccc(C(F)(F)F)cc4)C3)cc2)nc(Nc2ccc(F)cc2)n1 (centres unmarked) [31g]
measurement.unit: µM
CC50: 86

Prompt: For the record Cc1ccc(/C=C/C(=O)c2ccc(S(=O)(=O)NCCNc3nc(Nc4ccc(F)cc4)nc(N(C)C)n3)cc2)cc1 [24b] , what value of CC50 is listed for NCI-H322M?
Completion: 62.5

Prompt: For the record Cc1ccc(C2CC(c3ccc(Nc4nc(NCCO)nc(Nc5ccc(Cl)cc5)n4)cc3)=Nc3c(N)nc(N)nc3N2)cc1 (centres unmarked) [33b] , what value of CC50 is listed for NCI-H322M?
Completion: 5.42
